assay: Selectivity index, ratio of TC50 for human HepG2(2.2.15) cells to IC50 for HBV infected in human HepG2(2.2.15) cells assessed as inhibition of surface antigen secretion
measured-attribute: Selectivity Index
Note: the reply should be a number with no unit written.

A selection of reference data follows.
- structure: "C[C@@]12CC[C@@H]3[C@@](CC[C@H]4[C@@]3(C)CCC[C@@]4(C)NC(=O)c3ccc(C#N)cc3)(CC1=O)C2"
  Selectivity Index: 1.28
- structure: "COc1ccc(C(=O)N[C@]2(C)CCC[C@@]3(C)[C@@H]4CC[C@@]5(C)C[C@]4(CC[C@@H]32)CC5=O)cc1"
  Selectivity Index: 1.2

Now for another entry.
Exercise: Annotate the molecule CCc1ccc(C(=O)N[C@]2(C)CCC[C@@]3(C)[C@@H]4CC[C@@]5(C)C[C@]4(CC[C@@H]32)CC5=O)cc1 with its measured Selectivity Index.
Key: 3.8

###

tested on: Hepatitis B virus; test: Antiviral activity against HBV infected in human HepG2(2.2.15) cells assessed as inhibition of surface antigen secretion by EIA; type: functional, organism-based
measured-attribute: IC50 (µg/mL)
Hi! Could you send only the number? It should be in µg/mL, unit omitted.

A selection of reference data follows.
- structure: "CCC(=O)N[C@]1(C)CCC[C@@]2(C)[C@@H]3CC[C@@]4(C)C[C@]3(CC[C@@H]21)CC4=O"
  IC50, µg/mL: 32.5
- structure: "C[C@@]12CC[C@@H]3[C@@](CC[C@H]4[C@@]3(C)CCC[C@@]4(C)NC(=O)c3ccc(F)cc3)(CC1=O)C2"
  IC50, µg/mL: 4.17
- structure: "C[C@@]12CC[C@@H]3[C@@](CC[C@H]4[C@@]3(C)CCC[C@@]4(C)NC(=O)c3ccccc3)(CC1=O)C2"
  IC50, µg/mL: 35.6

Exercise: Annotate the molecule Nc1ccn([C@@H]2CS[C@H](CO)O2)c(=O)n1 with its measured IC50.
Key: 49.1

Exercise: Annotate the molecule CCCC(=O)N[C@]1(C)CCC[C@@]2(C)[C@@H]3CC[C@@]4(C)C[C@]3(CC[C@@H]21)CC4=O with its measured IC50.
Key: 10.4

###

tested on: Hepatitis B virus; experiment: Antiviral activity against HBV infected in human HepG2(2.2.15) cells assessed as inhibition of surface antigen secretion by EIA; assay type: functional, organism-based
Classify: fulfilled when IC50 is strictly less than 20 µg/mL; not fulfilled when IC50 is not.

Recorded results for 3 compounds are shown here.
- structure: "C[C@@]12CC[C@@H]3[C@@](CC[C@H]4[C@@]3(C)CCC[C@@]4(C)NC(=O)c3ccc(C#N)cc3)(CC1=O)C2"
  category-label: "fulfilled"
- structure: "CCc1ccc(C(=O)N[C@]2(C)CCC[C@@]3(C)[C@@H]4CC[C@@]5(C)C[C@]4(CC[C@@H]32)CC5=O)cc1"
  category-label: "fulfilled"
- structure: "COc1ccc(C(=O)N[C@]2(C)CCC[C@@]3(C)[C@@H]4CC[C@@]5(C)C[C@]4(CC[C@@H]32)CC5=O)cc1"
  category-label: "fulfilled"

Exercise: For this compound, is IC50 lower than 20 µg/mL? C[C@@]12CC[C@@H]3[C@@](CC[C@H]4[C@@]3(C)CCC[C@@]4(C)NC(=O)c3ccc(Br)cc3)(CC1=O)C2
Key: fulfilled

Exercise: For this compound, is IC50 lower than 20 µg/mL? C[C@@]12CC[C@@H]3[C@@](CC[C@H]4[C@@]3(C)CCC[C@@]4(C)NC(=O)c3ccc(Cl)cc3)(CC1=O)C2
Key: not fulfilled
